B1: RAB11A (parent)
chain: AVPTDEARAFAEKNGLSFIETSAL

variants of: B1; test: protein stability index of a GFP-peptide fusion (GPS, HEK-293T) (PSI 1-6); higher = more stable; conditions: c terminus: a fixed tail appended;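 note: lentivirally expressed fusions sorted by FACS into six bins by GFP to DsRed ratio, PSI derived from sequencing read proportions per bin multiplied by bin number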
Property: protein stability index

Examples from the recorded data:
F18P	4.68
K13Y	2.49
A11L	2.32
I19A	4.39
V2K	2.11
P3K	2.55
V2W	2.05
P3A	2.61

Please examine the following record next.
Enquiry: What measured protein stability index goes with V2Q ?
Return: 2
